Target: S1P (endogenous GPCR)
Conditions: read-out: EC50 values; n = 3
pEC50: −log10 of the molar value.

{"columns": ["compound", "system.tested", "pEC50"],
 "data": [
  ["CCCCCCCCCCCCC/C=C/[C@@H](O)[C@@H](N)COP(=O)(O)O [S1P, sphingosine 1-phosphate]", "S1P (endogenous GPCR)", 6.47]
]}
